# Tested on: FB
# test method notes: Euclidean distance of Cell Painting phenotypic profile (signed KS, 77 features) to DMSO centroid (dimensionless distance); 5 or 10 uM (library dependent); higher = stronger phenotypic change vs DMSO (phenoactivity)
# test settings: 48 h
property label: Euclidean distance

Entry CCn1cc(C(=O)O)c(=O)c2cc(F)c(N3CCNCC3)cc21 has what Euclidean distance?
1.26

###

Item-by-item account of Euclidean distance
# System: HEPG2
# test method notes: Euclidean distance of Cell Painting phenotypic profile (signed KS, 77 features) to DMSO centroid (dimensionless distance); 5 or 10 uM (library dependent); higher = stronger phenotypic change vs DMSO (phenoactivity)
# test settings: 48 h
Structures can show the parent of a compound that is named as a salt.
Write the number on its own, no unit after it.

Known Euclidean distance results, listed for orientation:
| molecule | target of assay | Euclidean distance |
| --- | --- | --- |
| CC(C)COCC(CN(Cc1ccccc1)c1ccccc1)N1CCCC1 (centres undefined) [Bepridil hydrochloride] | HEPG2 | 1.94 |
| CN(CCOc1ccc(CC2SC(=O)NC2=O)cc1)c1ccccn1 (centres undefined) [Rosiglitazone HCl] | HEPG2 | 2.06 |
| C[C@H](Cc1cc2c(c(C(N)=O)c1)N(CCCO)CC2)NCCOc1ccccc1OCC(F)(F)F | HEPG2 | 2.41 |

# lookup: Euclidean distance of COc1cc(C(=O)NCc2ccc(OCCN(C)C)cc2)cc(OC)c1OC [Tribenzagan Hydrochloride]
1.07

Note, next up: COc1ccc(C(=O)NCc2ccc(OCCN(C)C)cc2)cc1OC [Itopride hydrochloride]
1.09

Try CO[C@@H](C)Cn1c(=O)n(C)c2cnc3ccc(-c4cncc(C(C)(C)O)c4)cc3c21 next.
2.61

Note, next up: Clc1ccccc1CN1CCc2sccc2C1 [Ticlopidine HCl]
0.746

Cool, now CCCCS(=O)(=O)N[C@@H](Cc1ccc(OCCCCC2CCNCC2)cc1)C(=O)O [Tirofiban Hydrochloride]
0.871

Again, but for CC1(C)S[C@@H]2[C@H](NC(=O)[C@H](N)c3ccccc3)C(=O)N2[C@H]1C(=O)O [Ampicillin Trihydrate]
0.667

What about CO[C@@]1(NC(=O)CSC[C@@H](N)C(=O)O)C(=O)N2C(C(=O)O)=C(CSc3nnnn3C)CS[C@@H]21 [Cefminox Sodium] ?
0.714

Now the molecule NC(=O)N/N=C/c1ccc([N+](=O)[O-])o1
0.466

Proceed to CO/N=C(\C(=O)N[C@@H]1C(=O)N2C(C(=O)O)=C(CSc3nc(C)c(CC(=O)O)s3)CS[C@H]12)c1csc(N)n1 [Cefodizime Sodium]
0.792

For CCNC(=O)Nc1ccc(-c2nc3c(c(N4CCOC[C@@H]4C)n2)CCN(C2COC2)C3)cc1 then?
3.1

Now consider C#Cc1cccc(Nc2ncnc3cc(OCCOC)c(OCCOC)cc23)c1 [Erlotinib HCl (OSI-744)] and answer again.
0.884

Also need O=C(Nc1ccccc1)OCC(CN1CCCCC1)OC(=O)Nc1ccccc1 (centres undefined) [Diperodon HCl] , thanks.
0.984

One more molecule: CC(=O)[C@H]1CC[C@H]2[C@@H]3CCC4=CC(=O)CC[C@]4(C)[C@H]3CC[C@]12C
0.863

Next entry: CN(C)c1cc(NC(=O)CNC(C)(C)C)c(O)c2c1C[C@H]1C[C@H]3[C@H](N(C)C)C(O)=C(C(N)=O)C(=O)[C@@]3(O)C(O)=C1C2=O
1.09

# iterate: N#CC(=C(/N)Sc1ccccc1N)/C(C#N)=C(\N)Sc1ccccc1N
1.81

Request: CNCCc1ccccn1 [Betahistine mesylate]
0.422
